Value source: paper PMC8554075

target: SARS-CoV-2 receptor-binding domain (SARS-CoV-2, UniProt P0DTC2); experiment: cell-based or functional assay
// neutralization of live CoV2 virus, Vero E6 cells (blocks RBD-ACE2) lookup, one value per entry
Give me the value, and tack the unit on after it.

Answered examples (3):
- BINDER: "AB-2445, expressed as human IgG1 (antibody, V domains shown) VH: QVQLVESGGGVVQPGRSLRLSCAASGFTFSSYGMHWVRQAPGKGLEWVAVIWYDGSNKYYADSVKGRFTISRDNSKNTLYLQMNSLRAEDTAVYYCARDDYYGSGSYDYYGMDVWGQGTTVTVSS VL: DIQMTQSPSSLSASVGDRITITCRASQGIRNDLDWYQQKPGKAPKRLIYAASSLQSGVPSRFSGSGSGTEFTLTISSLQPEDFATYYCLQHNSYPPYTFGQGTKLEIK"
  ENDPOINT RESULT: "0.37 µg/mL"
- BINDER: "AB-2126, expressed as human IgG1 (antibody, V domains shown) VH: QVQLVESGGGVVQPGRSLRLSCAASGFTFSSYGIHWVRQAPGKGLEWVAVIWYDGSNKYYADSVKGRFTISRDNSKNTLYLQMNSLRAEDTAVYYCARETLDGMDVWGQGTTVTVSS VL: NIQMTQSPSAMSASVGDRVTITCRARQGISNYLAWFQQKPGKVPKHLIYAASSLLSGVPSRFSGSGSGTEFTLTIRSLQPEDFATYYCLQHNSYPYTFGQGTKLEIK"
  ENDPOINT RESULT: "0.106 µg/mL"
- BINDER: "AB-1987, expressed as human IgG1 (antibody, V domains shown) VH: QVQLVESGGGVVQPGRSLRLSCAASGFTFSSYGMHWVRQAPGKGLEWAAVIWYDGSNKYYADSVKGRFTISRDNSKNTLYLQMNSLRAEDTAVYYCARESSGGFDYWGQGTLVTVSS VL: NIQMTQSPSAMSASVGDRVTITCRARQGISNFLAWFQQKPGKVPKHLVYAASSLRSGVPSRFSGSGSGTEFTLTISSLQPEDFATYYCLQHNNYPYTFGQGTKLEIK"
  ENDPOINT RESULT: "0.054 µg/mL"

Consider the binder shown here: AB-3467, expressed as human IgG1 (antibody, V domains shown) VH: QVQLQESGPGLVKPSETLSLTCTVSGGSISSYHWNWIRQPPGKGLEWIGYIYYSGNTNYNPSLKSRVSISTDTSKNQFSLKLSSVTAADTAVYYCVREMRRGYSGYDYWDLYAFDIWGQGTMVTVSS VL: DIQLTQSPSFLSASVGDRVTITCRASQGISSYLAWYQQKPGKAPNLLIYAASTLQSGVPSRFSGSGSGTEFTLTISSLQPEDFATYYCQQLNSYPHTFGQGTKLEIK What is its recorded neutralization of live CoV2 virus, Vero E6 cells (blocks RBD-ACE2)?
0.179 µg/mL
